- Method Description: In vitro rat SD liver microsomal stability
- Format: in vitro ADME
- Condition Label: Sprague-Dawley (SD), liver microsomes
Recorded Metric: microsomal CLint
Write down the value, and be sure its unit follows.

Could you share which microsomal CLint value was measured for CC(C)C(Nc1ncnc2[nH]c(C(=O)NC3CCN(C)C3)cc12)c1ccc2c(c1)S(=O)(=O)CCC2 (stereo not shown) ?
7.85 µL/min/mg

====

Would you kindly list perc_max_measured for each of these compounds?
- Test system: SARS-CoV-2
- Method Description: Antiviral effect in iPSC-derived pneumocyte system
- Assay type: cell-based
- Condition Label: iPSC pneumocytes SARS-CoV-2 antiviral effect; maximum measured response of dose series
Answers are plain numbers, in %.

Solved entries:
{"columns": ["Compound", "Measured Target", "perc_max_measured [%]"],
 "data": [
  ["CC(C)[C@@H](Nc1ncnc2[nH]c(C(N)=O)cc12)c1ccc2c(c1)OCCO2 [ASAP-0008438]", "SARS-CoV-2", 162.718],
  ["Cc1ncc(-c2cc3c(N[C@@H](c4ccc5c(c4)OCCO5)C(C)C)ncnc3[nH]2)cn1 [ASAP-0008490]", "SARS-CoV-2", 160.084],
  ["CNCc1cc(-c2cc3c(N[C@@H](c4ccc5c(c4)S(=O)(=O)CCC5)C(C)C)ncnc3[nH]2)co1 [ASAP-0011176]", "SARS-CoV-2", 92.989]
]}

Count: 7. Required value per item: perc_max_measured.
1. CC(C)C(Nc1ncnc2[nH]ccc12)c1ccc2c(c1)NC(=O)CO2 (stereo not shown) [ASAP-0008302]
2. CCNC(=O)c1cc2c(NC(c3ccc4c(c3)OCCO4)C(C)C)ncnc2[nH]1 (stereo not shown) [ASAP-0008444]
3. CC(C)[C@@H](Nc1ncnc2[nH]c(-c3cnn(C)c3)cc12)c1ccc2c(c1)S(=O)(=O)CCC2 (single isomer, unassigned) [ASAP-0012329]
4. CC(C)[C@@H](Nc1ncnc2[nH]c(C(=O)N[C@H]3CCN(C)C3)cc12)c1ccc2c(c1)S(=O)(=O)CCC2 (single isomer, unassigned) [ASAP-0012336]
5. CC(C)(C)[C@@H](Nc1ncnc2[nH]c(-c3cnn(CC(N)=O)c3)cc12)c1ccc2c(n1)OCCO2 [ASAP-0011162]
6. CNC(=O)Cn1cc(-c2cc3c(N[C@H](c4ccc5c(c4)S(=O)(=O)CCC5)C(C)C)ncnc3[nH]2)cn1 (single isomer, unassigned) [ASAP-0011171]
7. CC(C)[C@H](Nc1ncnc2[nH]c(-c3cnn(CC(N)=O)c3)cc12)c1ccc2c(c1)S(=O)(=O)CCC2 (single isomer, unassigned) [ASAP-0011428]

1: 145.289; 2: 136.848; 3: 103.795; 4: 114.501; 5: 91.919; 6: 106.027; 7: 119.318

====

- Method Description: LogD
- Condition Label: pH 7.4; In vitro LogD
# binning rule on logd: low: < 2; mid: ≥ 2 and < 3; high: ≥ 3

{"columns": ["Compound", "Category Label"],
 "data": [
  ["CC(C)[C@H](Nc1ncnc2[nH]c(-c3cnn(C)c3)cc12)c1ccc2c(c1)S(=O)(=O)CCC2 (single isomer, unassigned)", "mid"]
]}

Field: class (logd) — entry: CC(C)[C@H](CO)Nc1ncnc2[nH]ccc12
low

Field: class (logd) — entry: CNC(=O)c1cc2c(N[C@H](c3ccc4c(c3)S(=O)(=O)CCC4)C(C)C)ncnc2[nH]1 (single isomer, unassigned)
mid

====

- Method Description: in vitro
- Set-up: Cytotoxicity in iPSC-derived pneumocytes, CC50
- Condition Label: human, ipsc-derived pneumocytes; ASAP-0008327-001=ASAP-0011171-001; read-out: 50.0
Recorded Metric: CC50

Could you share which CC50 value was measured for CNC(=O)Cn1cc(-c2cc3c(N[C@H](c4ccc5c(c4)S(=O)(=O)CCC5)C(C)C)ncnc3[nH]2)cn1 (single isomer, unassigned) [ASAP-0011171] ?
> 50 µM

====

- Measured Target: dopamine transporter (h) (Homo sapiens, UniProt Q01959)
- Construct: purchased Eurofins Cerep (SafetyScreen44), recognised from the panel format
- Sequence (Q01959 whole entry): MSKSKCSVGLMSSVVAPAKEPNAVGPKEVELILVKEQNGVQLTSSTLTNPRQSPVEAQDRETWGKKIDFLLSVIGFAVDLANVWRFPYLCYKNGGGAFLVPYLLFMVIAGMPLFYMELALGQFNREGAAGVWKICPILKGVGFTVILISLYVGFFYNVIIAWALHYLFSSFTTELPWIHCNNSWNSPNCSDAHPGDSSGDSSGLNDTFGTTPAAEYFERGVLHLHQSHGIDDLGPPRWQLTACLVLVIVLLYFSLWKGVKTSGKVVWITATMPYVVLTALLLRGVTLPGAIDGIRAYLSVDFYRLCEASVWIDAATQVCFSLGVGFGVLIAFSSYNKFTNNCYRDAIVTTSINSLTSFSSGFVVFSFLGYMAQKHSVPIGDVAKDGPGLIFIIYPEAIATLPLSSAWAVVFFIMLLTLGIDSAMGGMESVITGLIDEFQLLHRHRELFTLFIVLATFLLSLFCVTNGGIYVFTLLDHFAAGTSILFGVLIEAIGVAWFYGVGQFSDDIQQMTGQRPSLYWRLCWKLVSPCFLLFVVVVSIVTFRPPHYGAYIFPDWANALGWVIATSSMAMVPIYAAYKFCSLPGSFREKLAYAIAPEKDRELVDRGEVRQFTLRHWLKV
- Method Description: In vitro CEREP profiling, dopamine transporter (h) (antagonist radioligand)
- Type: binding
- Condition Label: test compound concentration 10 uM
Would you kindly list perc_inhibition (% inhibition of the binding of a ligand specific for each target) for each of these compounds?
Numbers only, in %.

Solved entries:
{"columns": ["Test Smiles", "Measured Target", "Quantitative Readout"],
 "data": [
  ["CC(C)[C@H](Nc1ncnc2[nH]c(-c3cnn(C)c3C#N)cc12)c1ccc2c(n1)OCCO2", "dopamine transporter (h) (Homo sapiens, UniProt Q01959)", 29],
  ["Cn1ncc(-c2cc3c(N[C@@H](c4ccc5c(n4)OCCO5)C(C)(C)C)ncnc3[nH]2)c1C#N", "dopamine transporter (h) (Homo sapiens, UniProt Q01959)", 50],
  ["COc1ccc([C@H](Cc2nnn[nH]2)NC(=O)c2ncnc3[nH]ccc23)cc1", "dopamine transporter (h) (Homo sapiens, UniProt Q01959)", 7],
  ["CC(C)[C@H](Nc1ncnc2[nH]ccc12)c1ccc2c(c1)S(=O)(=O)CCC2", "dopamine transporter (h) (Homo sapiens, UniProt Q01959)", 27],
  ["C[C@H](C(=O)O)[C@@H](NC(=O)c1ncnc2[nH]ccc12)c1ccc(Br)cc1", "dopamine transporter (h) (Homo sapiens, UniProt Q01959)", 4],
  ["CC(C)[C@@H](Nc1ncnc2[nH]c(-c3cnn(C)c3C#N)cc12)c1ccc2c(n1)OCCO2", "dopamine transporter (h) (Homo sapiens, UniProt Q01959)", 30]
]}

Next compound, perc_inhibition (% inhibition of the binding of a ligand specific for each target) to be filled in.
Could you share which perc_inhibition (% inhibition of the binding of a ligand specific for each target) value was measured for CNCc1cc(-c2cc3c(N[C@@H](c4ccc5c(c4)S(=O)(=O)CCC5)C(C)C)ncnc3[nH]2)co1 ?
50

====

- Method Description: In vitro kinetic solubility
- Condition Label: In vitro kinetic solubility, ph 7.4
Would you kindly list solubility_mean for each of these molecules?
Give bare numbers, in µM.

Solved entries:
{"columns": ["Molecule", "solubility_mean (µM)"],
 "data": [
  ["CNC(=O)c1c[nH]c2ncnc(N[C@H](c3ccc4c(c3)S(=O)(=O)CCC4)C(C)C)c12 (single isomer, unassigned) [ASAP-0011153]", 336],
  ["CNC(=O)c1cccc(-c2cc3c(N[C@@H](c4ccc5c(c4)S(=O)(=O)CCC5)C(C)C)ncnc3[nH]2)c1", 15],
  ["CNC(=O)c1c[nH]c2ncnc(N[C@@H](c3ccc4c(c3)S(=O)(=O)CCC4)C(C)C)c12", 204],
  ["CC(C)[C@H](Nc1ncnc2[nH]cc(C(=O)NC3CC3)c12)c1ccc2c(c1)S(=O)(=O)CCC2 (racemic) [ASAP-0008647]", 257],
  ["CNC(=O)c1cc2c(N[C@@H](c3ccc4c(c3)S(=O)(=O)CCC4)C(C)C)ncnc2[nH]1 (single isomer, unassigned) [ASAP-0012346]", 397],
  ["CC(C)[C@H](Nc1ncnc2[nH]c(-c3cnn(CC(N)=O)c3)cc12)c1ccc2c(n1)OCCO2", 377]
]}

Count: 3. Required value per item: solubility_mean.
1. CC(C)[C@@H](Nc1ncnc2[nH]c(-c3cnn(CC(N)=O)c3)cc12)c1ccc2c(n1)OCCO2 (single isomer, unassigned) [ASAP-0012315]
2. CNC(=O)c1c[nH]c2ncnc(N[C@@H](c3ccc4c(c3)OCCO4)C(C)C)c12
3. CC(C)[C@@H](Nc1ncnc2[nH]c(-c3cncc(S(C)(=O)=O)c3)cc12)c1ccc2c(c1)S(=O)(=O)CCC2

[395, 319, 31]

====

- Method Description: Hepatic microsomal stability, MLM
- Assay type: in vitro ADME
- Condition Label: In vitro mouse liver microsomal stability
Recorded Metric: perc_remaining (%)
One number for each entry, in %.

Solved entries:
{"columns": ["Compound", "perc_remaining [%]"],
 "data": [
  ["CC(C)[C@H](Nc1ncnc2[nH]c(-c3cnn(CC(N)=O)c3)cc12)c1ccc2c(c1)OCCO2 [ASAP-0008449]", 80.0],
  ["CCNC(=O)c1cc2c(NC(c3ccc4c(c3)OCCO4)C(C)C)ncnc2[nH]1 (stereo not shown)", 24.0],
  ["COc1ccc([C@H](Cc2nnn[nH]2)NC(=O)c2ncnc3[nH]ccc23)cc1", 115.387]
]}

Count: 4. Required value per item: perc_remaining.
1. CC(C)[C@@H](Nc1ncnc2[nH]c(-c3cnn(CCC(N)=O)c3)cc12)c1ccc2c(c1)OCCO2
2. CC(C)[C@H](Nc1ncnc2[nH]c(-c3cnn(C)c3C#N)cc12)c1ccc2c(c1)NC(=O)CO2 (single isomer, unassigned) [ASAP-0013256]
3. CC(C)[C@@H](Nc1ncnc2[nH]c(-c3cnn(C)c3C#N)cc12)c1ccc2c(n1)NC(=O)CO2 [ASAP-0008644]
4. CNC(=O)c1c[nH]c2ncnc(N[C@@H](c3ccc4c(c3)S(=O)(=O)CCC4)C(C)C)c12

36.0
10.0
9.0
15.0

Each recorded value in this set is attributed to paper doi:10.1101/2024.08.19.608619.
